Value source: the supplement of paper PMC6555819

# Test system: LXRb:RXRa (NR concentration 270 nM, RXRa partner concentration 90 nM)
# method: PBM binding z-score (relative to random genomic background probes); higher = stronger binding; sequences stand for … in GC…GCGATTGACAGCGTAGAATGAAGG
Could you label it True if measured PBM binding z-score is 2 or higher, and False otherwise?

INSERT INTO assay_data (sequencetext, classification) VALUES
  ('AGTCCAAGTTCACTAGGTAACGTAAGATTCAGCT', 'False'),
  ('CGAACTAGGTCAACAGGACAGTGAAGAGGTTGGA', 'False'),
  ('CCGAGTAGGTTACGTGGGGGCATTCAGTGCGAAT', 'True'),
  ('TCTCGGAGGACACGAAAGGTGAGAGCTCGACATC', 'False'),
  ('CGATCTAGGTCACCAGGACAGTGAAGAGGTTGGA', 'False'),
  ('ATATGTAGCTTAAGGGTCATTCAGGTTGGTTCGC', 'True'),
  ('CTATGTAGGTTAAGGGGGACATTCAGTTTGAAAG', 'True'),
  ('CCTTACGGGTCAAGGTTATATCACGGGTGGTACG', 'True'),
  ('CGAACTAGGTCAAAGGAGAGTGAAAGGCGACGTA', 'False'),
  ('CGTCCAAGGTAAGAGAGGTCAGTGAATGCCGAGT', 'False'),
  ('CGAGCTAGGTCACCAGGACAGTGAAGAGGTTGGA', 'False'),
  ('CGAACTAGGTCACCAGGACAGTGATGAGGTTGGA', 'False');
